Hello, the source for this data is patent US7307077B2, in case you need it.

tested on: MCF-7 cells; experiment: Test 1: growth inhibition of MCF-7 human breast cancer cells; type: cell-based; settings: Homo sapiens, MCF7, 72 hours culture with sample, read-out: GI50 (50% growth inhibition concentration)
Assign GI50 to each entry below.
Answers are plain numbers, in µM.

Would you mind listing GI50 for each of the following molecules?
1. C[C@@H]1OCCN(c2cc(N3CCOCC3)nc(-n3c(C(F)F)nc4ccccc43)n2)[C@H]1C (relative stereo)
2. FC(F)c1nc2ccccc2n1-c1nc(N2CCOCC2)cc(N2CCSCC2)n1

[0.18, 0.38]

Would you mind listing GI50 for each of the following molecules?
1. C[C@@H]1OCCN(c2nc(N3CCOCC3)nc(-n3c(C(F)F)nc4ccccc43)n2)[C@H]1C (relative stereo)
2. FC(F)c1nc2ccccc2n1-c1nc(N2CCOCC2)nc(N2CCOCC2)n1
3. C[C@@H]1OCCN(c2cc(N3CCOCC3)nc(-n3c(N)nc4ccccc43)n2)[C@@H]1C.Cl (relative stereo) [compound 30, hydrochloride]
4. Oc1ccc2c(c1)nc(C(F)F)n2-c1nc(N2CCOCC2)cc(N2CCOCC2)n1

1: 0.16; 2: 0.09; 3: 0.25; 4: 0.21
